TEST_SYSTEM: Gal4 DNA binding domain fused to the LBD of LXRβ in HEK293 cells (Homo sapiens (Human), UniProt P55055)
Sequence (P55055 222-460 limits assumed): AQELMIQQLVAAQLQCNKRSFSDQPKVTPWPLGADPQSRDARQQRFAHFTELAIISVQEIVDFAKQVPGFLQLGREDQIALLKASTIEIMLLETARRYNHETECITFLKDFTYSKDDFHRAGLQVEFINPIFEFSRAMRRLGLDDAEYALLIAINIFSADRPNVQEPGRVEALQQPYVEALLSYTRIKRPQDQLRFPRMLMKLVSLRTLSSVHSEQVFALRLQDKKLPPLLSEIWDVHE
ASSAY_REMARKS: cell-based
READOUT_NAME: pEC50
Numbers only, as −log10 of the molar value.

Please review the following examples before continuing.
chemical_structure=CS(=O)(=O)c1cccc(N2CCN(CC3(F)CCN(CC(F)(F)F)CC3)[C@@H](c3ccc(F)cc3)C2)c1 recorded_number=5.90
chemical_structure=CC(C)c1ccc(CN2CCN(c3cccc(S(C)(=O)=O)c3)C[C@@H]2c2ccccc2)cc1 recorded_number=5.87
chemical_structure=CC(C)[C@@H]1CN(c2ccc(F)c(S(C)(=O)=O)c2)CCN1c1ccc(C(F)(F)F)cn1 recorded_number=6.92

Items follow; give pEC50 for each.
1. CC(C)[C@@H]1CN(c2ccc(F)c(S(C)(=O)=O)c2)CCN1C(=O)OC(C)(C)C(F)(F)F
2. CC(C)[C@H]1CN(c2ccc(CO)c(S(C)(=O)=O)c2)CCN1c1ncc(C(C)(C)O)c(C(F)(F)F)n1
3. CC(C)[C@@H]1CN(c2ccc(F)c(S(C)(=O)=O)c2)CCN1c1ncc(C(=O)N2CC(N)C2)c(C(F)(F)F)n1

Return:
1: 6.95; 2: 6.01; 3: 6.08
